- study system: ovine COX-1 (oCOX-1) (Ovis aries, UniProt P05979)
- Construct: purchased Cayman Chemicals (Ann Arbor, Mich.)
- Sequence (P05979 25-600): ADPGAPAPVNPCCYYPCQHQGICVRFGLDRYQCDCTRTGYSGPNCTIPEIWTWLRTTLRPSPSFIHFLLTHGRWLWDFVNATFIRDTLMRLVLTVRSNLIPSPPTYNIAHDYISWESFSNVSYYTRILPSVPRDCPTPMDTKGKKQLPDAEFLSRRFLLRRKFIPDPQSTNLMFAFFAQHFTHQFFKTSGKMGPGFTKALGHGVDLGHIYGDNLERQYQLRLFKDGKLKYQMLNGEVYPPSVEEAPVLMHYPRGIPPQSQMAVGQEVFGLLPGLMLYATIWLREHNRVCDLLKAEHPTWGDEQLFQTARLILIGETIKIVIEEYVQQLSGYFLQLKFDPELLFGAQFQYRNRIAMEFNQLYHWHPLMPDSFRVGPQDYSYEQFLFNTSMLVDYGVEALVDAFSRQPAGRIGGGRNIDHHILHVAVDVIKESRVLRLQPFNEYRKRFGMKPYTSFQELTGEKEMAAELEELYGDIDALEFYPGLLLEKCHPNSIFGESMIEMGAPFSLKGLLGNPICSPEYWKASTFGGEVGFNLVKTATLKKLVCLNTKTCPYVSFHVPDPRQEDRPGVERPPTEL
- assay name: LCMS-based COX-1 enzymatic inhibition assay (PGE2 quantification)
- Format: biochemical
- condition summary: 10 minutes; readout pge2 area (counts); average LLE
Listed here: items and their measured COX1 10 minutes pge2 area (counts) Avg. LLE.
Just the number, please, no unit attached.

[
  {
    "compound": "Cc1cc(CNc2cccc(-c3ccc(S(C)(=O)=O)cc3)n2)co1 [Compound 27]",
    "quantitative readout": 1.134
  },
  {
    "compound": "COc1ncc(NCc2ccco2)nc1-c1ccc(S(C)(=O)=O)cc1 [Compound 43]",
    "quantitative readout": 2.44
  }
]

Turning now to a further compound:
[in] Look at this compound and give its reported COX1 10 minutes pge2 area (counts) Avg. LLE. CS(=O)(=O)c1ccc(-c2cccc(/C=C\c3cccs3)n2)cc1 [Compound 41]
[out] 0.2543

###

- study system: ovine COX-1 (oCOX-1) (Ovis aries)
- Construct: purchased Cayman Chemicals (Ann Arbor, Mich.)
- assay name: LCMS-based COX-1 enzymatic inhibition assay (PGE2 quantification)
- Format: biochemical
- condition summary: 10 minutes; readout pge2/pge2d4 area ratio; average; read-out: COX1 10 minutes pge2/pge2d4 area ratio Avg. IC50
Listed here: items and their measured log10 IC50.
Hey, these are logged values: log10 of IC50, µM being the unit before logging.

[
  {
    "molecule": "CS(=O)(=O)c1ccc(-c2cncc(NCc3cccs3)n2)cc1 [Compound 98]",
    "study system": "ovine COX-1 (oCOX-1) (Ovis aries)",
    "quantitative readout": 1.00
  }
]

[in] Look at this molecule and give its reported log10 IC50. CS(=O)(=O)c1ccc(-c2ccc3cnn(Cc4cccs4)c3n2)cc1 [Compound 63]
[out] 0.30

[in] Look at this molecule and give its reported log10 IC50. CS(=O)(=O)c1ccc(-c2cccc(OCc3ccsc3)n2)cc1 [Compound 9]
[out] 1.69

[in] Look at this molecule and give its reported log10 IC50. CS(=O)(=O)c1ccc(-c2ncc3ccn(Cc4cccs4)c3n2)cc1 [Compound 71]
[out] 1.69

[in] Look at this molecule and give its reported log10 IC50. CS(=O)(=O)c1ccc(-c2ccc3ccn(Cc4cccs4)c3n2)cc1 [Compound 31]
[out] 0.35

[in] Look at this molecule and give its reported log10 IC50. CS(=O)(=O)c1ccc(-c2cncc(SCc3cccs3)n2)cc1 [Compound 18]
[out] 0.50

###

- study system: human recombinant COX2 (hCOX2) (UniProt P35354)
- assay name: LCMS-based COX2 enzymatic inhibition assay (PGE2 quantification)
- Assay type: biochemical
- Set-up: COX2 2 minutes pge2/pge2d4 area ratio Avg; other: 2 minutes; readout pge2/pge2d4 area ratio; average; COX2 2 minutes pge2/pge2d4 area ratio Avg; LLE; average LLE; COX2 2 minutes pge2 area (counts) Avg; readout pge2 area (counts); other: 2 min; "ovine COX2 (oCOX2), human recombinant COX2 (hCOX2)"
- condition summary: 2 minutes; readout pge2/pge2d4 area ratio; average; read-out: COX2 2 minutes pge2/pge2d4 area ratio Avg. IC50
pIC50: −log10 of the molar value.
# binarize pIC50: threshold 7 inclusive, high side criterion met, low side criterion not met

Study these solved cases before continuing.
[
  {
    "molecule": "C[S+]([O-])c1ccc(-c2cccc(OCc3cccs3)n2)cc1 (centres unmarked) [Compound 157]",
    "category": "criterion not met"
  },
  {
    "molecule": "COc1ncc(NCc2sccc2C)nc1-c1ccc(S(C)(=O)=O)cc1 [Compound 62]",
    "category": "criterion met"
  },
  {
    "molecule": "CSc1ccc(-c2cncc(NCc3cccs3)n2)cc1 [Compound 84]",
    "category": "criterion met"
  },
  {
    "molecule": "CS(=O)(=O)c1ccc(-c2cncc(NCc3ccns3)n2)cc1 [Compound 142]",
    "category": "criterion not met"
  },
  {
    "molecule": "CS(=O)(=O)c1ccc(-c2ccc(F)c(NCc3ccoc3)n2)cc1 [Compound 33]",
    "category": "criterion met"
  }
]

[in] Check the entry COc1ncc(NCc2cccs2)nc1-c1ccc(S(C)(=O)=O)cc1 [Compound 29] : does pIC50 equal or exceed 7?
[out] criterion met

[in] Check the entry CS(=O)(=O)c1ccc(-c2cncc(NCc3ccco3)c2)cc1 [Compound 161] : does pIC50 equal or exceed 7?
[out] criterion not met

[in] Check the entry CS(=O)(=O)c1ccc(-c2coc3ccc(NCc4ccoc4)nc23)cc1 [Compound 55] : does pIC50 equal or exceed 7?
[out] criterion met

[in] Check the entry CS(=O)(=O)c1ccc(-c2cccc(NCc3cccs3)n2)cn1 [Compound 59] : does pIC50 equal or exceed 7?
[out] criterion met

[in] Check the entry CS(=O)(=O)c1ccc(-c2cnc(C#N)c(NCc3cccs3)n2)cc1 [Compound 169] : does pIC50 equal or exceed 7?
[out] criterion not met

[in] Check the entry CS(=O)(=O)c1ccc(-c2cncc(NC[C@H]3CCCO3)n2)cc1 [Compound 263] : does pIC50 equal or exceed 7?
[out] criterion not met

[in] Check the entry CSc1ccc(NCc2cccs2)nc1-c1ccc(S(C)(=O)=O)cc1 [Compound 20] : does pIC50 equal or exceed 7?
[out] criterion met

[in] Check the entry COc1ncc(NCc2ncco2)nc1-c1ccc(S(C)(=O)=O)cc1 [Compound 236] : does pIC50 equal or exceed 7?
[out] criterion not met

[in] Check the entry COc1ncc(NCc2ccoc2)nc1-c1ccc(S(C)(=O)=O)cc1 [Compound 44] : does pIC50 equal or exceed 7?
[out] criterion met
